# study-target: Integrin alpha-V/beta-3 (Homo sapiens, UniProt P05106+P06756)
# test-method-notes: Agonist activity at alphaVbeta3 integrin receptor in human SK-MEL-24 cells assessed as increase in fibronectin-induced cell adhesion pre-incubated for 30 mins
# Assay type: cell-based
test-readout: EC50 (nM)
Answers are plain numbers, in nM.

The examples below pair each entry with its known result.
- smiles-text: "Cc1ccccc1NC(=O)NCCC(=O)O"
  result-units: "nM"
  EC50: 29.9
- smiles-text: "O=C(O)/C=C1/CC(=O)N1"
  result-units: "nM"
  EC50: 75.6
- smiles-text: "Cc1ccccc1NC(=O)N1CCC[C@H]1C(=O)O"
  result-units: "nM"
  EC50: 2880

Pending compound:
Query: I am curious: what EC50 value has been reported for `Cc1ccccc1NC(=O)NCC(=O)O` ?
Result: 84.8

----------
# study-target: Integrin alpha-5/beta-1 (Homo sapiens, UniProt P05556+P08648)
# test-method-notes: Agonist activity at alpha5beta1 integrin receptor in human K562 cells assessed as increase in fibronectin-induced cell adhesion pre-incubated for 30 mins
test-readout: pEC50
Give bare numbers, as −log10 of the molar value.

Query: I am curious: what pEC50 value has been reported for `Cc1ccccc1NC(=O)N1CCC[C@H]1C(=O)O` ?
Result: 6.85

----------
# study-target: Integrin alpha-5/beta-1 (Homo sapiens, UniProt P05556+P08648)
# test-method-notes: Binding affinity to alpha5beta1 integrin receptor (unknown origin) incubated fro 30 mins by competitive solid-phase binding assay
# Type: protein-complex assay
pIC50: −log10 of the molar value.
test-readout: pIC50

The examples below pair each entry with its known result.
- smiles-text: "Cc1ccccc1NC(=O)NCC(=O)O"
  pIC50: "< 6.00"
- smiles-text: "Cc1ccccc1NC(=O)NCCC(=O)O"
  pIC50: "< 6.00"

Query: I am curious: what pIC50 value has been reported for `O=C(O)/C=C1/CC(=O)N1` ?
Result: < 6.00
